// reported growth inhibition for each item listed
- Tested on: DIPGX29 (H3.3 K27M diffuse intrinsic pontine glioma line)
- ASSAY TEXT: growth inhibition (% activity, log2 RLU normalised to DMSO / staurosporine); higher = more growth inhibition
- TEST CONTEXT: 33 µM
Express it in %; write the number only.

Solved cases (5 shown):
| COMPOUND | ASSAY SYSTEM | growth inhibition [%] |
| --- | --- | --- |
| COC(=O)C1=C(C)NC(C)=C(C(=O)OCCN2CCN(C(c3ccccc3)c3ccccc3)CC2)C1c1cccc([N+](=O)[O-])c1 (centres undefined) | DIPGX29 | 5.69 |
| Cc1nnc(C(C)C)n1C1C[C@H]2CC[C@@H](C1)N2CC[C@H](NC(=O)C1CCC(F)(F)CC1)c1ccccc1 (stereo in doubt) | DIPGX29 | 0.752 |
| CCN[C@@H]1C[C@H](N)[C@@H](O[C@H]2OC(CN)=CC[C@H]2N)[C@H](O)[C@H]1O[C@H]1OC[C@](C)(O)[C@H](NC)[C@H]1O | DIPGX29 | 0.443 |
| CCn1cc(C(=O)O)c(=O)c2ccc(C)nc21 | DIPGX29 | -2.16 |
| CCCCN(CCCC)CCCOC(=O)c1ccc(N)cc1 | DIPGX29 | 2.46 |

I am curious: what growth inhibition value has been reported for `CC[C@@H]([C@H](C)O)n1ncn(-c2ccc(N3CCN(c4ccc(OC[C@@H]5CO[C@@](Cn6cncn6)(c6ccc(F)cc6F)C5)cc4)CC3)cc2)c1=O` ? -3.19

Now the same for `Nc1nc(=O)c2c([nH]1)NC[C@H](CNc1ccc(C(=O)N[C@@H](CCC(=O)O)C(=O)O)cc1)N2C=O` 1.44

Now try `Nc1ccc(C(=O)O)c(O)c1` . 0.612

Now this one: `CCN(CC)C(=S)SSC(=S)N(CC)CC` 1.19
